All figures here come from PubChem BioAssay AID1159580.

- assay-summary: chemical genetic growth profiling, strain panel (AID 1159580);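 further: tested at 20 µM; growth read once vehicle control cultures reached saturation at 30 °C; 1 = growth at the plate median or of vehicle wells; lower values mean less growth of the strain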
- protocol-conditions: S. cerevisiae deletion strains, growth OD, locus YML016C, strain PPZ1, active compounds read low
Hit rate of the full screen: of about 5,500 compounds, about 2,000 (36%) were called active. Roughly 18% stayed inconclusive and do not appear here. The list shows a part of the results.
Assign normalized growth to each entry below.
Response field accepts a number only; no unit should be typed.

QUERY: normalized growth lookup needed for "COC(=O)[C@H]1[C@H]2C[C@H]3c4[nH]c5cc(OC)ccc5c4CCN3C[C@H]2C[C@@H](OC(=O)c2cc(OC)c(OC)c(OC)c2)[C@@H]1OC" , thanks.
RESULT: 0.998

QUERY: normalized growth lookup needed for NC[C@H]1O[C@H](OC2[C@@H](N)C[C@@H](N)[C@H](O[C@H]3O[C@H](CO)[C@@H](O)[C@H](N)[C@H]3O)[C@H]2O)[C@H](O)[C@@H](O)[C@@H]1O (some centres not stated) , thanks.
RESULT: 0.99

QUERY: normalized growth lookup needed for CC1(C)C(O)CC(=O)C2(C)C1CC(O)C1(C)C2CCC2(C)C(c3ccoc3)OC(=O)C3OC321 (configuration not stated) , thanks.
RESULT: 0.999

QUERY: normalized growth lookup needed for "Nc1ccc(S(=O)(=O)Nc2ncccn2)cc1" , thanks.
RESULT: 0.988

QUERY: normalized growth lookup needed for "COc1c(O)cc2c(c1O)[C@H]1O[C@H](CO)[C@@H](O)[C@H](O)[C@@H]1OC2=O" , thanks.
RESULT: 1

QUERY: normalized growth lookup needed for CC(=O)[C@@]1(O)CCC2C3C=C(Cl)C4=CC(=O)[C@@H]5CC5[C@]4(C)C3CC[C@@]21C (some centres not stated) , thanks.
RESULT: 1.02

QUERY: normalized growth lookup needed for CC1(C)O[C@@H]2CC3C4C[C@H](F)C5=CC(=O)CC[C@]5(C)C4[C@@H](O)C[C@]3(C)[C@]2(C(=O)CO)O1 (some centres not stated) , thanks.
RESULT: 1.01

###

- assay-summary: chemical genetic growth profiling, strain panel (AID 1159580);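 further: tested at 20 µM; growth read once vehicle control cultures reached saturation at 30 °C; 1 = growth at the plate median or of vehicle wells; lower values mean less growth of the strain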
- protocol-conditions: S. cerevisiae deletion strains, growth OD, locus YMR205C, strain PFK2, active compounds read low
Out of some 5,500 compounds screened, about 2,000 (36%) were called active. Another 18% or so got no clear call; they are omitted. The list shows a part of the results.
measured-endpoint: normalized growth
Response field accepts a number only; no unit should be typed.

QUERY: normalized growth lookup needed for NC[C@H]1O[C@H](OC2[C@@H](N)C[C@@H](N)[C@H](O[C@H]3O[C@H](CO)[C@@H](O)[C@H](N)[C@H]3O)[C@H]2O)[C@H](O)[C@@H](O)[C@@H]1O (some centres undefined) , thanks.
RESULT: 0.975

QUERY: normalized growth lookup needed for "Nc1ccc(S(=O)(=O)Nc2ncccn2)cc1" , thanks.
RESULT: 0.985

QUERY: normalized growth lookup needed for CC(C)=CC1C(CO)C1(C)C (centres undefined) , thanks.
RESULT: 1.04

QUERY: normalized growth lookup needed for "COC(=O)[C@H]1[C@H]2C[C@H]3c4[nH]c5cc(OC)ccc5c4CCN3C[C@H]2C[C@@H](OC(=O)c2cc(OC)c(OC)c(OC)c2)[C@@H]1OC" , thanks.
RESULT: 1.02

QUERY: normalized growth lookup needed for "COc1cc(O)c2c(=O)cc(-c3ccc(OC)c(-c4c(O)cc(O)c5c(=O)cc(-c6ccc(O)cc6)oc45)c3)oc2c1" , thanks.
RESULT: 1.01

QUERY: normalized growth lookup needed for "CN[C@H]1CC[C@@H](c2ccc(Cl)c(Cl)c2)c2ccccc21" , thanks.
RESULT: 0.866

QUERY: normalized growth lookup needed for "NC(=O)c1ccc([N+](=O)[O-])cc1Cl" , thanks.
RESULT: 1.01

QUERY: normalized growth lookup needed for "C=CCSCC=C" , thanks.
RESULT: 0.969

QUERY: normalized growth lookup needed for "COc1cc2c(cc1OC)-c1c(oc3cc(O)cc(O)c3c1=O)CO2" , thanks.
RESULT: 1.02

QUERY: normalized growth lookup needed for COC(=O)CC1C(C)(C)C(OC(C)=O)[C@@H]2[C@@H](OC(C)=O)[C@]34O[C@@]2(O)[C@]1(C)C3CC[C@]1(C)C4=CC(=O)O[C@H]1c1ccoc1 (some centres undefined) , thanks.
RESULT: 1.02

QUERY: normalized growth lookup needed for "CCc1ccc2c(O)c3c(cc2c1C(=O)OC)C(=O)c1c(O)ccc(O)c1C3=O" , thanks.
RESULT: 0.984

QUERY: normalized growth lookup needed for "Cc1c(C(N)=O)cc([N+](=O)[O-])cc1[N+](=O)[O-]" , thanks.
RESULT: 1

QUERY: normalized growth lookup needed for CCCCC(=O)O[C@]1(C(=O)CO)[C@@H](C)CC2C3CCC4=CC(=O)C=C[C@]4(C)[C@@]3(F)C(O)C[C@@]21C (some centres undefined) , thanks.
RESULT: 0.984

QUERY: normalized growth lookup needed for "C=CCSSSCC=C" , thanks.
RESULT: 0.967

QUERY: normalized growth lookup needed for "COc1ccc(-c2cc(=O)c3c(O)cc(O)c(-c4cc(-c5cc(=O)c6c(O)cc(O)cc6o5)ccc4OC)c3o2)cc1" , thanks.
RESULT: 1.02

QUERY: normalized growth lookup needed for CC1(C)S[C@@H]2[C@H](NC(=O)C(C(=O)O)c3ccccc3)C(=O)N2[C@H]1C(=O)O (some centres undefined) , thanks.
RESULT: 0.98

QUERY: normalized growth lookup needed for COC1=CC(C)[C@@H]2C[C@H]3OC(=O)C[C@H]4C(C)=C(OC)C(=O)C([C@@]34C)[C@@]2(C)C1=O (some centres undefined) , thanks.
RESULT: 0.946

QUERY: normalized growth lookup needed for "C=CCSSCC=C" , thanks.
RESULT: 1.05

QUERY: normalized growth lookup needed for CCC(=O)OCC(=O)C1(OC(=O)CC)C(C)CC2C3C(Cl)CC4=CC(=O)C=CC4(C)C3C(O)CC21C (centres undefined) , thanks.
RESULT: 1.02

###

- assay-summary: chemical genetic growth profiling, strain panel (AID 1159580);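 further: tested at 20 µM; growth read once vehicle control cultures reached saturation at 30 °C; 1 = growth at the plate median or of vehicle wells; lower values mean less growth of the strain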
- protocol-conditions: S. cerevisiae deletion strains, growth OD, locus YGL086W, strain mad1
Hit rate of the full screen: of about 5,500 compounds, about 2,000 (36%) were called active. Inconclusive results (about 18%) are left out. Cut-off read from the data, not from the text of the source: active = normalized growth mostly below about 0.91 (no sharp cut-off); inconclusive = no clear call, values can overlap the other calls; inactive = mostly above about 0.92. Some of the results follow.
Select the correct class. Options are yes (1) for active, no (0) for inactive and nothing else.

QUERY: I would be grateful if you could indicate the recorded call for "Cc1c(C(N)=O)cc([N+](=O)[O-])cc1[N+](=O)[O-]" .
RESULT: no (0)

QUERY: I would be grateful if you could indicate the recorded call for CC1(C)C(O)CC(=O)C2(C)C1CC(O)C1(C)C2CCC2(C)C(c3ccoc3)OC(=O)C3OC321 (stereo not drawn) .
RESULT: no (0)

QUERY: I would be grateful if you could indicate the recorded call for CCC(=O)O[C@]1(C(=O)CCl)[C@@H](C)CC2C3CCC4=CC(=O)C=C[C@]4(C)[C@@]3(F)[C@@H](O)C[C@@]21C (stereo partly drawn) .
RESULT: no (0)

QUERY: I would be grateful if you could indicate the recorded call for COC1CC(O[C@H]2CC[C@]3(C=O)C4CC[C@]5(C)C(C6=CC(=O)OC6)CC[C@]5(O)C4CC[C@]3(O)C2)OC(C)C1O (stereo partly drawn) .
RESULT: no (0)

QUERY: I would be grateful if you could indicate the recorded call for "NCCCN" .
RESULT: no (0)

QUERY: I would be grateful if you could indicate the recorded call for CO[C@@H]1C[C@H](O[C@H]2CC[C@]3(C)C4CC[C@]5(C)[C@@H](C6=CC(=O)OC6)CC[C@]5(O)[C@@H]4CC[C@]3(O)C2)O[C@H](C)[C@@H]1O (stereo partly drawn) .
RESULT: no (0)

QUERY: I would be grateful if you could indicate the recorded call for "COc1ccccc1N1CCN(CCCNc2cc(=O)n(C)c(=O)n2C)CC1" .
RESULT: no (0)

QUERY: I would be grateful if you could indicate the recorded call for CCC(=O)OCC(=O)C1(OC(=O)CC)C(C)CC2C3CCC4=CC(=O)C=CC4(C)C3(Cl)C(O)CC21C (stereo not drawn) .
RESULT: no (0)

QUERY: I would be grateful if you could indicate the recorded call for "COc1cc(O)c2c(=O)cc(-c3ccc(O)cc3)oc2c1" .
RESULT: no (0)

QUERY: I would be grateful if you could indicate the recorded call for CCCCC(=O)O[C@]1(C(=O)CO)[C@@H](C)CC2C3CCC4=CC(=O)C=C[C@]4(C)[C@@]3(F)C(O)C[C@@]21C (stereo partly drawn) .
RESULT: no (0)

QUERY: I would be grateful if you could indicate the recorded call for CC1CCCC(C)N1NC(=O)c1ccc(Cl)c(S(N)(=O)=O)c1 (stereo not drawn) .
RESULT: no (0)

QUERY: I would be grateful if you could indicate the recorded call for "NC(=O)c1ccc([N+](=O)[O-])cc1Cl" .
RESULT: no (0)

QUERY: I would be grateful if you could indicate the recorded call for "COc1ccc(-c2cc(=O)c3c(O)c(OC)c(OC)cc3o2)cc1O" .
RESULT: no (0)

QUERY: I would be grateful if you could indicate the recorded call for "COc1ccc(-c2cc(=O)c3c(O)cc(O)cc3o2)cc1" .
RESULT: no (0)

QUERY: I would be grateful if you could indicate the recorded call for "CC1=CC(=O)C(C(C)C)=CC1=O" .
RESULT: yes (1)

QUERY: I would be grateful if you could indicate the recorded call for "COC(=O)NC(=S)Nc1ccccc1NC(=S)NC(=O)OC" .
RESULT: no (0)

QUERY: I would be grateful if you could indicate the recorded call for "NC(=O)c1cc([N+](=O)[O-])cc([N+](=O)[O-])c1" .
RESULT: no (0)

QUERY: I would be grateful if you could indicate the recorded call for "CC[C@@]1(O)C(=O)OCc2c1cc1n(c2=O)Cc2cc3ccccc3nc2-1" .
RESULT: yes (1)

QUERY: I would be grateful if you could indicate the recorded call for "C/C=C(/C)C(=O)O[C@@H]1Cc2c(ccc3ccc(=O)oc23)OC1(C)C" .
RESULT: no (0)

QUERY: I would be grateful if you could indicate the recorded call for "O=C(Oc1ccccc1C(=O)O)c1ccccc1O" .
RESULT: no (0)

QUERY: I would be grateful if you could indicate the recorded call for Cc1ccccc1N1C(=O)c2cc(S(N)(=O)=O)c(Cl)cc2NC1C (stereo not drawn) .
RESULT: no (0)

QUERY: I would be grateful if you could indicate the recorded call for "CC(=O)Oc1ccccc1C(=O)Oc1ccccc1C(=O)O" .
RESULT: no (0)

QUERY: I would be grateful if you could indicate the recorded call for CC1(C)S[C@@H]2[C@H](NC(=O)C(C(=O)O)c3ccccc3)C(=O)N2[C@H]1C(=O)O (stereo partly drawn) .
RESULT: no (0)

QUERY: I would be grateful if you could indicate the recorded call for "CC(=O)O[C@@H]1c2c(ccc3ccc(=O)oc23)OC(C)(C)[C@@H]1OC(=O)CC(C)C" .
RESULT: no (0)

QUERY: I would be grateful if you could indicate the recorded call for "COc1ccc(-c2cc(=O)c3c(O)c(OC)c(O[C@H]4O[C@H](CO[C@@H]5O[C@@H](C)[C@H](O)[C@@H](O)[C@H]5O)[C@@H](O)[C@H](O)[C@H]4O)cc3o2)cc1" .
RESULT: no (0)

QUERY: I would be grateful if you could indicate the recorded call for C[C@@H]1CCC2[C@](C)(CO)[C@@H](O)CC[C@]2(C)[C@@]12CC[C@@](CO)(CCO)O2 (stereo partly drawn) .
RESULT: no (0)

QUERY: I would be grateful if you could indicate the recorded call for "NC(N)=Nc1ccc(Cl)cc1" .
RESULT: no (0)

QUERY: I would be grateful if you could indicate the recorded call for "O=C(CCCN1CCC(O)(c2ccc(Cl)cc2)CC1)c1ccc(F)cc1" .
RESULT: yes (1)
